Reference source for all entries: patent US20230286970A1

# System under test: recombinant human HDAC1 (Homo sapiens (Human), UniProt Q13547)
# Sequence (Q13547 whole entry): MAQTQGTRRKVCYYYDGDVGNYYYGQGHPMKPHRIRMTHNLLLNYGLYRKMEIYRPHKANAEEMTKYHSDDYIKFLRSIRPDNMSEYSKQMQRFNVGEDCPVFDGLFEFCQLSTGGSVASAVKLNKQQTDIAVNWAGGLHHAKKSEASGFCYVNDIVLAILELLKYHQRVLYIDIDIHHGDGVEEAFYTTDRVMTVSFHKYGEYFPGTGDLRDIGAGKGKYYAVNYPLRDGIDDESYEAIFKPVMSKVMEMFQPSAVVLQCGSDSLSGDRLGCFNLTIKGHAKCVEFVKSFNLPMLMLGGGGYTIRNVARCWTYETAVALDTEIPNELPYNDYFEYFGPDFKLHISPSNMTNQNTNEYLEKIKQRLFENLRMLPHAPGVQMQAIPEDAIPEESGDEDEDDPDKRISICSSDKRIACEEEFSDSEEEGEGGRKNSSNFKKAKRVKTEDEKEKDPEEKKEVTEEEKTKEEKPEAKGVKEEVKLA
# Experiment: Enzymatic screening, HDAC1 inhibition (fluorogenic FdL_G substrate)
pIC50: −log10 of the molar value.
Property measured: pIC50

Find the recorded pIC50 belonging to FC(F)c1nnc(-c2ccc(Cn3nnc(-c4csc5ccccc45)n3)cc2)o1 [compound 207] and report it.
3.00

Find the recorded pIC50 belonging to Fc1ccccc1-c1nnn(Cc2ccc(-c3nnc(C(F)F)o3)cc2)n1 [compound 181] and report it.
< 3.70

Find the recorded pIC50 belonging to Nc1ccc(-c2cn(C(CCNC(=O)C(F)F)c3ccc(-c4nnc(C(F)F)o4)cn3)nn2)cn1 (stereo not shown) [compd. 295] and report it.
< 3.70

Find the recorded pIC50 belonging to O=C(Nc1cccc(-c2cn(Cc3ccc(-c4nnc(C(F)F)o4)cc3F)nn2)c1)N1CCOCC1 [compound 47] and report it.
< 4.52

* * *

Give measured pIC50 for each item. Keep answers brief.
# System under test: recombinant human HDAC1 (Homo sapiens (Human), UniProt Q13547)
# Experiment: Enzymatic screening, HDAC1 inhibition (fluorogenic FdL_G substrate)
pIC50: −log10 of the molar value.

Find the recorded pIC50 belonging to O=C(Nc1ccc(-c2nnn(Cc3ncc(-c4nnc(C(F)F)o4)cn3)n2)cn1)C(F)F and report it.
< 3.70

Find the recorded pIC50 belonging to CN(Cc1ccncc1)Cc1ccc(-c2cn(Cc3ccc(-c4nnc(C(F)F)o4)cc3)nn2)cc1 and report it.
< 3.70

Find the recorded pIC50 belonging to O=C1NCc2ccc(-c3cn(Cc4ccc(-c5nnc(C(F)F)o5)cn4)cn3)cc21 and report it.
< 3.70

Find the recorded pIC50 belonging to CS(=O)(=O)NCC[C@H](c1ccc(-c2nnc(C(F)F)o2)cc1)n1cc(-c2ccc(N)nc2)nn1 and report it.
< 3.00

Find the recorded pIC50 belonging to O=c1[nH]c2ccc(-c3nnn(Cc4ccc(-c5nnc(C(F)F)o5)cc4)n3)cc2[nH]1 and report it.
< 3.70

Find the recorded pIC50 belonging to O=C1NCc2ccc(-c3cnn(Cc4ccc(-c5nnc(C(F)F)o5)cc4)c3)cc21 and report it.
< 3.00

Find the recorded pIC50 belonging to NC(=O)c1cccc(-c2cn(Cc3ccc(-c4nnc(C(F)F)o4)cn3)cn2)c1 and report it.
< 3.00

Find the recorded pIC50 belonging to Cn1c(=O)[nH]c2cc(-c3nnn(Cc4ccc(-c5nnc(C(F)F)o5)cc4)n3)ccc21 and report it.
< 3.70

Find the recorded pIC50 belonging to COc1ncc(NCc2ccc(-c3cn(Cc4c(F)cc(-c5nnc(C(F)F)o5)cc4F)nn3)cc2)cc1C(N)=O and report it.
< 3.70

Find the recorded pIC50 belonging to CCNc1cccc(-c2cn(Cc3c(F)cc(-c4nnc(C(F)F)o4)cc3F)nn2)c1 and report it.
< 3.70

Find the recorded pIC50 belonging to Nc1cc2cc(-c3cn(Cc4ccc(-c5nnc(C(F)F)o5)cc4Cl)nn3)ccc2cn1 and report it.
3.00

Find the recorded pIC50 belonging to Nc1ncnc2cc(-c3cn(Cc4ccc(-c5nnc(C(F)F)o5)cn4)nn3)ccc12 and report it.
< 3.00

Find the recorded pIC50 belonging to CNc1ccc2cc(-c3nnn(Cc4ccc(-c5nnc(C(F)F)o5)c(F)c4F)n3)ccc2n1 and report it.
3.00

Find the recorded pIC50 belonging to O=C(Nc1cccc(-c2cn(Cc3ccc(-c4nnc(C(F)F)o4)cn3)cn2)c1)N1CCOCC1 and report it.
< 3.70

Find the recorded pIC50 belonging to CN(Cc1ccc(-c2nc(Cc3ccc(-c4nnc(C(F)F)o4)cc3)no2)cc1)C(=O)C(F)F and report it.
< 3.70

Find the recorded pIC50 belonging to O=C1NCc2ccc(-c3cnn(Cc4ccc(-c5nnc(C(F)F)o5)cn4)c3)cc21 and report it.
< 3.00

* * *

# System under test: recombinant human HDAC6 (Homo sapiens (Human), UniProt Q9UBN7)
# Sequence (Q9UBN7 whole entry): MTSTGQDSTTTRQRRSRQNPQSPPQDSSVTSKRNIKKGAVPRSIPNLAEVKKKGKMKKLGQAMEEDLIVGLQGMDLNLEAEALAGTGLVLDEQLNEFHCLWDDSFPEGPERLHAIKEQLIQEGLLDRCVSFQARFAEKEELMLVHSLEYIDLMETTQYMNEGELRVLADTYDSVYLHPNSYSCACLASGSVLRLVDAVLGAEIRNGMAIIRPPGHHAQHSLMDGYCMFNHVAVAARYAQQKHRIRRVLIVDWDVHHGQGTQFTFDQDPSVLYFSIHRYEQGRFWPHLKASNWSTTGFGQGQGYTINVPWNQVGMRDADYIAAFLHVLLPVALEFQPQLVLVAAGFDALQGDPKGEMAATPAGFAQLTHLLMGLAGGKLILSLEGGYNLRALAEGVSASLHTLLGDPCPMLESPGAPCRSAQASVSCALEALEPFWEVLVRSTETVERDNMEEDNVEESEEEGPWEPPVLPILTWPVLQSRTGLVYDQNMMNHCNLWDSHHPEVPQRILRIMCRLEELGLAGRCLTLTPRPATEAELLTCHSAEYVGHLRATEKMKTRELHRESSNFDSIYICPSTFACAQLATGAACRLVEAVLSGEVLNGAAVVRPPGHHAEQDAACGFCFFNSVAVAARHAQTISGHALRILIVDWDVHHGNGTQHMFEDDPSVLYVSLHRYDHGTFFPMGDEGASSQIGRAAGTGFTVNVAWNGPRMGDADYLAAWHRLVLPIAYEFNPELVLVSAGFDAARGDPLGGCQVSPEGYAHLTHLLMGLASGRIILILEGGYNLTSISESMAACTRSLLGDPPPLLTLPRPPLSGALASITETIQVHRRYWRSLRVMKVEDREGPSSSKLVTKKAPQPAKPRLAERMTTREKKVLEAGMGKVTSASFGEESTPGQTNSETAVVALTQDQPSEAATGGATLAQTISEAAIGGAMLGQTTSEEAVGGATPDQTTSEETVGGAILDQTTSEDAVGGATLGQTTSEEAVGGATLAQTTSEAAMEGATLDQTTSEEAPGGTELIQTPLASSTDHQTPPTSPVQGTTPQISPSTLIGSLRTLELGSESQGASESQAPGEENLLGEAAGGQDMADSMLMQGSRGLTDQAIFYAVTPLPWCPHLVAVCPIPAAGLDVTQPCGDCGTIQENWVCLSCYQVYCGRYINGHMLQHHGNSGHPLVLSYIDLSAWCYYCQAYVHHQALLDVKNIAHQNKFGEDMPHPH
# Experiment: Enzymatic screening, HDAC6 inhibition (fluorogenic FdL_G substrate)
# 1 = IC50 below 30 nM (exclusive); -1 = IC50 at/above 30 nM

Decide: IC50 of CN1CCN(C(=O)Nc2cccc(-c3cn(Cc4c(F)cc(-c5nnc(C(F)F)o5)cc4F)nn3)c2)CC1 strictly below 30 nM?
1

Decide: IC50 of CC(=O)N(Cc1ccco1)c1cccc(-c2cn(Cc3c(F)cc(-c4nnc(C(F)F)o4)cc3F)nn2)c1 strictly below 30 nM?
-1

Decide: IC50 of CCNc1ncc2cc(-c3cn(Cc4ccc(-c5nnc(C(F)F)o5)c(F)c4)nn3)ccc2n1 strictly below 30 nM?
-1

Decide: IC50 of O=C(Nc1ccc(-c2cn(Cc3ccc(-c4nnc(C(F)F)o4)cn3)cn2)cn1)C(F)F strictly below 30 nM?
-1

Decide: IC50 of O=C(Nc1cccc(-c2cn(Cc3ccc(-c4nnc(C(F)F)o4)cn3)cn2)c1)N1CCOCC1 strictly below 30 nM?
1

Decide: IC50 of FC(F)c1nnc(-c2ccc(Cn3nnc(-c4ccc5ccccc5n4)n3)cc2)o1 strictly below 30 nM?
-1

Decide: IC50 of CS(=O)(=O)NCCC(c1ccc(-c2nnc(C(F)F)o2)cn1)n1cc(-c2ccc(N)nc2)nn1 (centres unmarked) strictly below 30 nM?
-1

Decide: IC50 of CC(c1ccc(-c2nnc(C(F)F)o2)cn1)n1cc(-c2cccc(NC(=O)N3CCOCC3)c2)nn1 (centres unmarked) strictly below 30 nM?
1

Decide: IC50 of Nc1ncc(-c2cccc(-c3nnn(Cc4ccc(-c5nnc(C(F)F)o5)cc4)n3)c2)s1 strictly below 30 nM?
-1

Decide: IC50 of O=C1NCc2ccc(-c3nnn(Cc4ccc(-c5nnc(C(F)F)o5)cc4F)n3)cc21 strictly below 30 nM?
1

Decide: IC50 of CNc1ccc2cc(-c3nnn(Cc4ccc(-c5nnc(C(F)F)o5)cc4F)n3)ccc2n1 strictly below 30 nM?
-1

Decide: IC50 of CCCCC(c1ccc(-c2nnc(C(F)F)o2)cc1)n1cc(-c2ccc(N)nc2)nn1 (centres unmarked) strictly below 30 nM?
-1

Decide: IC50 of CCNc1ccc2cc(-c3nnn(Cc4ccc(-c5nnc(C(F)F)o5)c(F)c4)n3)ccc2n1 strictly below 30 nM?
-1

Decide: IC50 of Cc1nc(F)ccc1-c1cn(Cc2ccc(-c3nnc(C(F)F)o3)cc2)nn1 strictly below 30 nM?
-1

Decide: IC50 of O=C(c1cccc(-c2nnn(Cc3c(F)cc(-c4nnc(C(F)F)o4)cc3F)n2)c1)N1CCOCC1 strictly below 30 nM?
-1

Decide: IC50 of NC(=O)c1cccc(-c2nc(Cc3ccc(-c4nnc(C(F)F)o4)cc3)no2)c1 strictly below 30 nM?
-1

Decide: IC50 of C[C@H](c1ccc(-c2nnc(C(F)F)o2)cn1)n1cc(-c2ccc(N)nc2)nn1 strictly below 30 nM?
1

Decide: IC50 of CCS(=O)(=O)N1CCN(Cc2ccc(-c3cn(Cc4c(F)cc(-c5nnc(C(F)F)o5)cc4F)nn3)cc2)CC1 strictly below 30 nM?
-1

Decide: IC50 of Nc1nc2cc(-c3nnn(Cc4ccc(-c5nnc(C(F)F)o5)cn4)n3)ccc2o1 strictly below 30 nM?
1

Decide: IC50 of CN(C)S(=O)(=O)c1ccc(F)c(-c2nnn(Cc3ccc(-c4nnc(C(F)F)o4)cc3)n2)c1 strictly below 30 nM?
-1

Decide: IC50 of NC(=O)c1cc(-c2nnn(Cc3ccc(-c4nnc(C(F)F)o4)cc3)n2)cnc1N strictly below 30 nM?
-1

Decide: IC50 of FC(F)c1nnc(-c2cnc(Cn3nnnc3-c3cccs3)nc2)o1 strictly below 30 nM?
-1

Decide: IC50 of CNc1ccc2cc(-c3nnn(Cc4c(F)cc(-c5nnc(C(F)F)o5)cc4F)n3)ccc2n1 strictly below 30 nM?
-1

Decide: IC50 of Nc1ccc(-c2cn(C(Cc3ccc(Cl)cc3)c3ccc(-c4nnc(C(F)F)o4)cc3)nn2)cn1 (centres unmarked) strictly below 30 nM?
-1

Decide: IC50 of O=C1Nc2ccc(-c3cn(Cc4ccc(-c5nnc(C(F)F)o5)cc4)nn3)cc2C12CCNC2 (centres unmarked) strictly below 30 nM?
1

Decide: IC50 of Fc1cc(-c2nnc(C(F)F)o2)c(F)cc1Cn1cnc(-c2ccc(NC3=NCCN3)cc2)c1 strictly below 30 nM?
1

Decide: IC50 of CC(=O)c1cccc(-c2nnn(Cc3ccc(-c4nnc(C(F)F)o4)cc3)n2)c1 strictly below 30 nM?
-1

Decide: IC50 of Nc1ccc(-c2cn(Cc3ncc(-c4nnc(C(F)F)o4)cc3F)nn2)cn1 strictly below 30 nM?
-1

Decide: IC50 of Cc1ncc(-c2nnn(Cc3ccc(-c4nnc(C(F)F)o4)cc3)n2)cc1N strictly below 30 nM?
1

Decide: IC50 of NCC(=O)Nc1cccc(-c2cn(Cc3c(F)cc(-c4nnc(C(F)F)o4)cc3F)nn2)c1 strictly below 30 nM?
-1

Decide: IC50 of Fc1cccc(-c2cn(Cc3ccc(-c4nnc(C(F)F)o4)cc3)nn2)c1 strictly below 30 nM?
-1

Decide: IC50 of Nc1ccc(-c2noc(Cc3ccc(-c4nnc(C(F)F)o4)cc3F)n2)cc1 strictly below 30 nM?
-1
